src = the supplement of paper PMC10567573

- test: protein stability index of a GFP-peptide fusion (GPS, HEK-293T) (PSI 1-6); higher = more stable;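 also: 24-mer peptide tiles fused after GFP, lentivirally expressed, FACS-sorted into six equal bins by GFP/DsRed ratio, decoded by Illumina sequencing, PSI is the read-weighted mean bin number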
- test-context: treatment: MLN4924 1 uM, 8 h; c terminus: a fixed tail appended
Catalogue of protein stability index readings, one per entry.
outcome-measure: protein stability index

residue-sequence: PSLGRVLPDPREACGSSSYVASIV [RBMY1A1]
outcome-measure: protein stability index
recorded-value: 2.94

residue-sequence: HSCVQIKNDVFICGGYNGEVILGD [KLHDC10]
outcome-measure: protein stability index
recorded-value: 2.62

residue-sequence: PKEQLSTSFQWVTKWVDYSNKYGF [PLK2]
outcome-measure: protein stability index
recorded-value: 2.46

residue-sequence: QEYQLPYQRVLPLPIFTPAKMGAT [TCAP]
outcome-measure: protein stability index
recorded-value: 3.09

residue-sequence: KRRPKREKHPKKPEPQQKAPLVPP [SRPK2]
outcome-measure: protein stability index
recorded-value: 4.99

residue-sequence: SPFSGSLHAPPAFYSTSSGLANGL [VENTX]
outcome-measure: protein stability index
recorded-value: 2.96

residue-sequence: HTKRLYRAVVEAVHRLDLILCNKT [SMG5]
outcome-measure: protein stability index
recorded-value: 2.82

residue-sequence: PLDDALLSFAHANCTLIISYQKPK [DPCD]
outcome-measure: protein stability index
recorded-value: 2.22

residue-sequence: TEYIESPDVENEVKRLLRSDAEAV [TAF7L]
outcome-measure: protein stability index
recorded-value: 5.03

residue-sequence: AISLTKCLESTKLLADLKKCGDLE [MIA2]
outcome-measure: protein stability index
recorded-value: 2.79

residue-sequence: LDPVAETAIRQLTEPSGRVAKKTP [C2CD2L]
outcome-measure: protein stability index
recorded-value: 5.18

residue-sequence: LGKPDQKDLNENLAATQGLAHMIA [DLC1]
outcome-measure: protein stability index
recorded-value: 3.84

residue-sequence: TVVKSLIDNSSEIEDEDQILENSS [FAN1]
outcome-measure: protein stability index
recorded-value: 5.38

residue-sequence: WVLLFTPCSFVCWYRPMYKAFRSD [SCAMP3]
outcome-measure: protein stability index
recorded-value: 3

residue-sequence: DMSYSIRHSISMPAMRNSPTFKSF [TPD52L1]
outcome-measure: protein stability index
recorded-value: 2.95

residue-sequence: EFFSANAISDQLLGAGSDLKDFTL [ADAMTSL2]
outcome-measure: protein stability index
recorded-value: 3.22

residue-sequence: FPAMLFSSMLTGILWDTLLRLCAW [POMT2]
outcome-measure: protein stability index
recorded-value: 3.09

residue-sequence: LAFKNDIQFWNSRQSLEGLSVRSV [CLPTM1]
outcome-measure: protein stability index
recorded-value: 2.5

residue-sequence: GQINVVKHLLNLGVEIDEINVYGN [ANKRD44]
outcome-measure: protein stability index
recorded-value: 2.29

residue-sequence: SVWVLRDFPEDGLKIFTEDLPEVE [VPS39]
outcome-measure: protein stability index
recorded-value: 3.59

residue-sequence: VLLAVLPVLLLQITVGLVFLCLQY [MOG]
outcome-measure: protein stability index
recorded-value: 3.13

residue-sequence: VPRTEAPAPASSTPQEPWPGPTAP [PDLIM7]
outcome-measure: protein stability index
recorded-value: 5.2

====

- test: protein stability index of a GFP-peptide fusion (GPS, HEK-293T) (PSI 1-6); higher = more stable
- test-context: treatment: MLN4924 1 uM, 8 h; c terminus: a fixed tail appended
outcome-measure: protein stability index

residue-sequence: GTNEALLRQLRELEEQFALEAGGY [PRPH]
outcome-measure: protein stability index
recorded-value: 3.92
--
residue-sequence: DTLQNDYFAIKQEVVTPDNMCMGR [ETS1]
outcome-measure: protein stability index
recorded-value: 4.05
--
residue-sequence: KVSGNRCASPVTGPGSKRDAHFCA [ESR2]
outcome-measure: protein stability index
recorded-value: 2.79
--
residue-sequence: QSEHTMVLRCQLSAEEVRFPVSVT [C2CD2L]
outcome-measure: protein stability index
recorded-value: 2.49
--
residue-sequence: KRRVALSPVTENSTSLSFLDSCNS [MYBL2]
outcome-measure: protein stability index
recorded-value: 3.92
--
residue-sequence: HRRRSRERGPYRTRKHAHHCHKRR [CLK3]
outcome-measure: protein stability index
recorded-value: 4.57
--
residue-sequence: QQHSDKTSLQGLTGTPLVAGSPIR [ISL2]
outcome-measure: protein stability index
recorded-value: 4.39
--
residue-sequence: QRVLFSGSSDHSVIMWDIGGRKGT [WDFY2]
outcome-measure: protein stability index
recorded-value: 2.94
--
residue-sequence: GRRATLQRLVEALEENELTSLAED [TRADD]
outcome-measure: protein stability index
recorded-value: 4.43
--
residue-sequence: YLATEYLETHFRDVSSTEEFLELS [GAN]
outcome-measure: protein stability index
recorded-value: 3.2
--
residue-sequence: EEGDEDDWASNKVMFKIGDLGHVT [WEE1]
outcome-measure: protein stability index
recorded-value: 4.39
--
residue-sequence: DVFSENLLADVKGARAALNEIESR [STX11]
outcome-measure: protein stability index
recorded-value: 4.37
--
residue-sequence: LSCLGQQQQEPPLAMGTVSLGQLP [PLAGL1]
outcome-measure: protein stability index
recorded-value: 3.59
--
residue-sequence: LEVSQLEGSLQQPKAQSAMSPYLV [SMG5]
outcome-measure: protein stability index
recorded-value: 3.46
--
residue-sequence: FRFIPVLFPNAKKEHVPTWLQNTH [TRAF3IP2]
outcome-measure: protein stability index
recorded-value: 2.6
--
residue-sequence: PCLCLSWEEAQSPANCPACREPSP [TRIM43]
outcome-measure: protein stability index
recorded-value: 4.79
--
residue-sequence: MVGGLKRKHSDLEEEEERWEWSPA [SERTAD3]
outcome-measure: protein stability index
recorded-value: 4.56
--
residue-sequence: LEGLNLSILKAMGKTKKDYQEASN [NECAB1]
outcome-measure: protein stability index
recorded-value: 3.91
--
residue-sequence: RYMLTRDYLTVKVWDLNMEARPIE [PPP2R2C]
outcome-measure: protein stability index
recorded-value: 2.37
--
residue-sequence: SGYHYGVWSCEGCKAFFKRSIQGH [ESR2]
outcome-measure: protein stability index
recorded-value: 2.52
--
residue-sequence: GPRVGEALVSHPEVPLISFTGSQP [ALDH8A1]
outcome-measure: protein stability index
recorded-value: 4.09
--
residue-sequence: MASSAAGCVVIVGSGVIGRSWAML [CRYL1]
outcome-measure: protein stability index
recorded-value: 2.89
--
residue-sequence: YDAYRTDLEELSLGPRDAGTRGRL [ARFIP2]
outcome-measure: protein stability index
recorded-value: 4.35
--
residue-sequence: AGLGPGSRRPLDEAVAGAEGREAP [DENND6A]
outcome-measure: protein stability index
recorded-value: 5.04
--
residue-sequence: CYLSFPDSNSGCLGDTQFCFRFRQ [DENND6A]
outcome-measure: protein stability index
recorded-value: 2.4
--
residue-sequence: NRGLILYRLGYFDDALEDFKKVLD [TTC32]
outcome-measure: protein stability index
recorded-value: 2.24
--
residue-sequence: EGEADHSGYAGELGFRAFSGSGNR [UFD1]
outcome-measure: protein stability index
recorded-value: 4.69
--
residue-sequence: LSASQKALKEKEKASWSSLSMDEK [COX4I1]
outcome-measure: protein stability index
recorded-value: 4.84
--
residue-sequence: AILRVIRLVRVFRIFKLSRHSKGL [KCNA1]
outcome-measure: protein stability index
recorded-value: 2.46
--
residue-sequence: KEAVAALPPDVTTQSVMGFDPLPP [TCF25]
outcome-measure: protein stability index
recorded-value: 4.89
--
residue-sequence: DKPGTTQIVQLTQQVDTNISVILP [DENND6A]
outcome-measure: protein stability index
recorded-value: 3.68

====

- test: protein stability index of a GFP-peptide fusion (GPS, HEK-293T) (PSI 1-6); higher = more stable
- test-context: treatment: DMSO; c terminus: a fixed tail appended
Catalogue of protein stability index readings, one per entry.
outcome-measure: protein stability index

residue-sequence: YLAFAASNVRGSLNVNLNSVVLRR [DUSP5]
recorded-value: 2.41
//
residue-sequence: EVDGLRGTNEALLRQLRELEEQFA [PRPH]
recorded-value: 4.35
//
residue-sequence: EELEAKRLQCPFEQELLRRQQRLN [FAM107A]
recorded-value: 4.59
//
residue-sequence: LMKGGADLFVENMPGFPDNIRPSS [APMAP]
recorded-value: 3.66
//
residue-sequence: SQTDRGASAGKRRCFWLGMEGLET [SDE2]
recorded-value: 2.87
//
residue-sequence: TSQEIFRQRFRHLRYQETPGPREA [ZNF232]
recorded-value: 3.63
//
residue-sequence: ALGWAPAAPPPLKDDPEGDRDGCV [ZBED3]
recorded-value: 5.34
//
residue-sequence: GNMANLSLHDHDGSSGASDQDTLA [DVL3]
recorded-value: 5.42
//
residue-sequence: GSLPGPGQTSGAREPPQAVSIKEA [VENTX]
recorded-value: 5.01
//
residue-sequence: KKKKTKKIKEKYIDQEELNKTKPI [HSP90AB1]
recorded-value: 4.28
